biological target: corticotropin releasing factor 1 receptor; test: cell-based or functional assay
Ends that are not written are not given here.
ATTRIBUTE_MEASURED: CRF1R EC50 (nM)

INSERT INTO measurements (binder, unit_annotation, value_relation_sign, experimental_value) VALUES
  ('IVLSLDVPIGLLQILLEQTKADAAREQATTNARILARV-NH2 [SEQ ID NO 108]', 'nM', '>', 100),
  ('IVLSLEVPIGLLQILLEQARARAAREQATTNARILARV-NH2 [SEQ ID NO 120]', 'nM', '=', 100),
  ('ZGPPISIDLPINLLRKMIEIEKQEKEKQQAANNRLLLDTI (C-terminal amide) [SEQ ID NO 37]', 'nM', '>', 1000),
  ('ZGPPISIDLPFQLLRKMIEIEKQEKEKQQAAANRLLLDTV (C-terminal amide) [SEQ ID NO 15]', 'nM', '=', 85.3),
  ('IVLSLDVPIGLLQILLEQTKANAAREQATTVARILARV-NH2 [SEQ ID NO 116]', 'nM', '=', 100),
  ('ZGPPISIDLPYHLLRKMIEIEKQEKEKQQAANNRLLLDTI (C-terminal amide) [SEQ ID NO 208]', 'nM', '=', 64.9);
